src = patent US20220112288A1

Target: T1, human CD4 (human, UniProt P01730 26-458)
T1 construct: whole, on cells; also called hCD4
Assay: FACS, clonal hybridoma supernatant on human PBMCs
Observed property: % CD4 Stain (%)
I only need the number, in %, no unit after it.

% CD4 Stain for 75110_01J09A (antibody, V domains shown, Tested as clonal hybridoma supernatant (AlivaMab Mouse Kappa; anti-mouse Fc detection); also called Sib2.2) VH: EVQLVESGGGLVQPGGSLRLSCVASGFTFSSYWMSWVRQAPGKGLEWVANTKEDGSDKYYVDSVKGRFTICRDNAKNSLYLQMNSLRAEDTAVYYCAREGGQWLALDYWGQGTLVTVSS VL: DIQMTQSPSSVSASVGDRVTINCRASQGISSWLAWYQQKPGKAPNLLIFGASSLQSGVPSRFSGSGFGTDFSLTITTLQPEDFATYHCQQANSFPWTFGQGTKVEIK is 34.8

% CD4 Stain for 75110_02E22A (antibody, V domains shown, Tested as clonal hybridoma supernatant (AlivaMab Mouse Kappa; anti-mouse Fc detection); also called Sib7.1) VH: QVQLQESGPGLVKPSETLSLTCTVSGGSISSFYWSWIRQPAGKGLEWIGRIYTSGSTNYNPSLKSRVTMSVDTSKNQFSLKLSSVTAADTAVYYCARELEKRNYYGMDVWGQGTTVTVSS VL: DIQMTQSPSSLSASVGDRVTITCQASHDISNYLNWYQQKPGKAPKLLIFDASTLETGVPSRFSGSGSGTYFTFTIRSLQPEDIATYYCQQYDSLPLTFGGGTKVEIK is 32.8

% CD4 Stain for 75110_01J17A (antibody, V domains shown, Tested as clonal hybridoma supernatant (AlivaMab Mouse Kappa; anti-mouse Fc detection); also called Sib1.12) VH: EVQLVESGGGLVQPGGSLRLSCAASGFTFSSYDMHWVRQGTGKGLEWVSTIGTADDTYYPGSVKGRFTISRENAENSLYLQMNSLRAGDTAVYYCARGGDYYYGMDVWGQGTTVTVSS VL: EIVLAQSPGTLSLSPGERATLSCRASQSVYISYLAWYQQKPGQAPRLLIYGASSRATGIPDRFSGSGSGTDFTLTITRLEPEDFAVYYCQQFGSSPFTFGPGTKVDFK is 35.2

% CD4 Stain for 75110_02I16A (antibody, V domains shown, Tested as clonal hybridoma supernatant (AlivaMab Mouse Kappa; anti-mouse Fc detection); also called 75110_02116A) VH: QVQLQQWGAGLLKPSETLSLTCDVYGGSFSGYYWTWIRQPPGKGLEWIGEINHSGTTNSNPSLKSRVTISVDTSKSQFSLRLSSVTAADTAVYFCTRELNWFDPWGQGTLVTVSS VL: DIQMTQSPSSVSASVGDRVTITCRASQDIANWLAWYQQKPGKAPQLLIYAASSLLGGVPSRFSGSGSGADFTLTISSLHPEDFATYYCQQANSFPYTFGQGTKLEIK is 36.1

% CD4 Stain for 75110_01C18A (antibody, V domains shown, Tested as clonal hybridoma supernatant (AlivaMab Mouse Kappa; anti-mouse Fc detection)) VH: EVQLVESGGGLIQPGGSLRLSCAASGFTVSSNYMNWVRQAPGKGLEWVSVIYAGDNTYSADSVKGRFTISRDNSNNTLCLQMNSLRAEDTAVYYCAREGGTTGAFDIWGQGTMVTVSS VL: DIQMTQSPSSVSASVGDRVTITCRASQGINSWLAWYQQKPGKAPKLLIYAASSLQSGVPSRFSGSGSGTDFTLTISSLQPEDFATYYCQQGNSFPYTFGQGTKLEIK is 34.1
